B1: STK38L (parent)
chain: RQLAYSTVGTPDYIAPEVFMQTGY

- Variants of: B1
- Protocol Details: protein stability index of a GFP-peptide fusion (GPS, HEK-293T) (PSI 1-6); higher = more stable;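 further: lentivirally expressed fusions sorted by FACS into six bins by GFP to DsRed ratio, PSI derived from sequencing read proportions per bin multiplied by bin number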
- Test Settings: c terminus: a fixed tail appended
Where protein stability index equals or exceeds 3, the correct label is y; where it does not, the label is n.

1) RQLAYSTVGTNDYIAPEVFMQTGY    n
2) RQLAYSTVVTPDYIAPEVFMQTGY    n
3) RQLYYSTVGTPDYIAPEVFMQTGY    n
4) RQLAYSTVGTPDYCAPEVFMQTGY    n
5) RQLAYSTVGTPDYSAPEVFMQTGY    y

Then there is this variant:
Can RQLAYSTVGTPDYIADEVFMQTGY be said to have protein stability index at or above 3?
n
